- test summary: Cytotoxicity against human HL7702 cells assessed as cell survival rate at 10 uM incubated for 24 hrs by MTT assay
- Assay type: cell-based
- experimental setup: HL7702 (L02) cells, read-out: Activity
As shown below, each of these compounds has a reported viability at 24 h, 10 µM value.
observed property: viability at 24 h, 10 µM (%)

1. C=CCc1cc(/C=C2\CN(S(=O)(=O)c3ccccc3)C/C(=C\c3ccc(O)c(CC=C)c3)C2=O)ccc1O :: 63.4
2. C=CCc1cc(/C=C2\CN(C3CC3)C/C(=C\c3ccc(N4CCOCC4)cc3)C2=O)ccc1O :: 94.3
3. C=CCc1cc(/C=C2\CN(C3CC3)C/C(=C\c3ccc(O)c(CC=C)c3)C2=O)ccc1O :: 76.2
